B1: Zinc finger homeobox protein 3, residues 2147 to 2202; numbered along this chain, Q15911 (parent)
chain: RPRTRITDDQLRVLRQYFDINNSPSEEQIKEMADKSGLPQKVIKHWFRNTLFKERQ

Variants of: B1
Procedure Details: abundance fitness (aPCA) (normalised: wild type 0, dead -1); higher = more abundant; growth selection in yeast, the domain comes from the species named
Condition Summary: Homo sapiens
Measured abundance fitness values are reported for all entries that follow.

Mutant Name | abundance fitness
E31N | -0.399
I6C | -0.4
E31W | -0.404
